# assay name: qHTS profiling for inhibitors of Plasmodium falciparum proliferation (AID 504749);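 further: 0% = DMSO vehicle and full inhibition = artemisinin control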
# condition details: P. falciparum in erythrocytes, SYBR Green DNA, 72 h; at 28.7 µM (top of the series); parasite line B
Inconclusive results are not listed.
observed property: activity, negative = inhibition (%)
The response must be a number in % with no trailing unit.

Exercise: Dear colleague, please send me the reported activity, negative = inhibition for "COc1ccc(O)cc1" when you can.
Key: -15.4

Exercise: Dear colleague, please send me the reported activity, negative = inhibition for "CC(=O)Nc1ccc(OCCOCCOc2ccc(NC(C)=O)cc2)cc1" when you can.
Key: 13

Exercise: Dear colleague, please send me the reported activity, negative = inhibition for "CN1CCN(C(=O)C2CCCCC2)CC1" when you can.
Key: -13.4

Exercise: Dear colleague, please send me the reported activity, negative = inhibition for CCCCCCCCCCC(CO)CCCCCCCC (stereo unspecified) when you can.
Key: 6.03

Exercise: Dear colleague, please send me the reported activity, negative = inhibition for CC(CN(C)C)C(C)(O)Cc1ccc(Cl)cc1 (stereo unspecified) when you can.
Key: 10.7

Exercise: Dear colleague, please send me the reported activity, negative = inhibition for "CN1C(C)(C)CCCC1(C)C" when you can.
Key: 5.87

Exercise: Dear colleague, please send me the reported activity, negative = inhibition for "CCOc1ccc(C(=O)OCCN(CC)CC)cc1" when you can.
Key: 3.64

Exercise: Dear colleague, please send me the reported activity, negative = inhibition for CC(N)CCCC(C)(C)O (stereo unspecified) when you can.
Key: -7.47

Exercise: Dear colleague, please send me the reported activity, negative = inhibition for "COC(=O)c1cccnc1" when you can.
Key: 16.6

Exercise: Dear colleague, please send me the reported activity, negative = inhibition for "CC[N+](C)(CC)CCOC(=O)C1c2ccccc2Oc2ccccc21" when you can.
Key: -20.9

Exercise: Dear colleague, please send me the reported activity, negative = inhibition for "CCOC(=O)c1cccnc1" when you can.
Key: 13.9
